The origin of these recorded values is the supplement of paper PMC11061612.

test system: NCI-H82 (Small Cell Lung Carcinoma); experiment: combination Emax (second highest fraction inhibited in the dose matrix, 72 h); higher = more inhibition; extreme values may be limits of the assay
combination Emax of 0.8 or higher: 1. Under 0.8: -1.

Challenge: combination Emax >= 0.8 for Cc1c2c(nn1C)CSCc1cc(n(C)n1)CSc1cc(c3ccccc3c1)OCCCc1c(C(=O)O)n(C)c3c-2c(Cl)ccc13 [AZD5991] + C=CCn1c(=O)c2cnc(Nc3ccc(N4CCN(C)CC4)cc3)nc2n1-c1cccc(C(C)(C)O)n1 [AZD1775] (first compound max 1 µM, partner max 1 µM) ?
Response given: 1

Challenge: combination Emax >= 0.8 for Cn1cnc2c(F)c(Nc3ccc(Br)cc3Cl)c(C(=O)NOCCO)cc21 [Selumetinib] + C[C@@H]1COCCN1C2=NC(=NC(=C2)C3(CC3)[S@](=N)(=O)C)C4=C5C=CNC5=NC=C4 [AZD6738] (first compound max 10 µM, 7x7, partner max 10 µM) ?
Response given: -1

Challenge: combination Emax >= 0.8 for CN(CCO)CC[C@H](CSc1ccccc1)Nc1ccc(S(=O)(=O)NC(=O)c2ccc(N3CCC([C@@H](O)c4ccccc4-c4ccc(Cl)cc4)CC3)cc2)cc1S(=O)(=O)C(F)(F)F [AZD4320] + CC(=O)O[C@H]1C(=O)[C@@]2(C)[C@H]([C@H](OC(=O)c3ccccc3)[C@]3(O)C[C@H](OC(=O)[C@H](O)[C@@H](NC(=O)c4ccccc4)c4ccccc4)C(C)=C1C3(C)C)[C@]1(OC(C)=O)CO[C@@H]1C[C@@H]2O [Paclitaxel] (first compound max 1 µM, 7x7, partner max 3 µM) ?
Response given: 1

Challenge: combination Emax >= 0.8 for COc1cccc(OCCCN)c1-c1cc(Nc2cnc(C#N)cn2)n[nH]1 [Prexasertib] + CCc1c2c(nc3ccc(O)cc13)-c1cc3c(c(=O)n1C2)COC(=O)[C@]3(O)CC [SN-38] (first compound max 1 µM, 7x7, partner max 0.3 µM) ?
Response given: 1

Challenge: combination Emax >= 0.8 for Cn1cnc2c(F)c(Nc3ccc(Br)cc3Cl)c(C(=O)NOCCO)cc21 [Selumetinib] + CCN(CCO)CCCOc1ccc2c(Nc3cc(CC(=O)Nc4cccc(F)c4)[nH]n3)ncnc2c1 [AZD2811] (first compound max 10 µM, 7x7, partner max 1 µM) ?
Response given: -1

Challenge: combination Emax >= 0.8 for COc1cccc(OCCCN)c1-c1cc(Nc2cnc(C#N)cn2)n[nH]1 [Prexasertib] + Cc1cc2ncnn2cc1Nc1ncc2c(n1)n(C1CCOCC1)c(=O)n2C [AZD7648] (first compound max 1 µM, 7x7, partner max 10 µM) ?
Response given: 1

Challenge: combination Emax >= 0.8 for COc1cc2ncnc(Nc3ccc(F)c(Cl)c3)c2cc1OCCCN1CCOCC1 [Gefitinib] + CC(C)n1c(=O)n(C)c2cnc3cc(F)c(-c4ccc(OCCCN5CCCCC5)nc4)cc3c21 [AZD1390] (first compound max 10 µM, 7x7, partner max 0.3 µM) ?
Response given: -1
